System: SARS-CoV-2 Wuhan variant
EXPERIMENT NOTES: microbe, parasite or virus in culture
Format: cell-based
CONDITION NOTES: Severe acute respiratory syndrome coronavirus 2, Calu-3
VALUE TYPE: IC50 (nM)

COc1cc2c(Nc3ccc(Br)cc3F)ncnc2cc1OCC1CCN(C)CC1 :: 38.9
O=C(O)c1cc(/N=N/c2ccc(S(=O)(=O)Nc3ccccn3)cc2)ccc1O :: 24400
COc1cc(Nc2ncc(F)c(Nc3ccc4c(n3)NC(=O)C(C)(C)O4)n2)cc(OC)c1OC :: 103

Cited source: paper PMC11411213
